- target.or.system: T1, EsCas13d, nuclease-dead (Eubacterium siraeum, UniProt B0MS50, R295A;H300A;R849A;H854A)
- T1 sequence: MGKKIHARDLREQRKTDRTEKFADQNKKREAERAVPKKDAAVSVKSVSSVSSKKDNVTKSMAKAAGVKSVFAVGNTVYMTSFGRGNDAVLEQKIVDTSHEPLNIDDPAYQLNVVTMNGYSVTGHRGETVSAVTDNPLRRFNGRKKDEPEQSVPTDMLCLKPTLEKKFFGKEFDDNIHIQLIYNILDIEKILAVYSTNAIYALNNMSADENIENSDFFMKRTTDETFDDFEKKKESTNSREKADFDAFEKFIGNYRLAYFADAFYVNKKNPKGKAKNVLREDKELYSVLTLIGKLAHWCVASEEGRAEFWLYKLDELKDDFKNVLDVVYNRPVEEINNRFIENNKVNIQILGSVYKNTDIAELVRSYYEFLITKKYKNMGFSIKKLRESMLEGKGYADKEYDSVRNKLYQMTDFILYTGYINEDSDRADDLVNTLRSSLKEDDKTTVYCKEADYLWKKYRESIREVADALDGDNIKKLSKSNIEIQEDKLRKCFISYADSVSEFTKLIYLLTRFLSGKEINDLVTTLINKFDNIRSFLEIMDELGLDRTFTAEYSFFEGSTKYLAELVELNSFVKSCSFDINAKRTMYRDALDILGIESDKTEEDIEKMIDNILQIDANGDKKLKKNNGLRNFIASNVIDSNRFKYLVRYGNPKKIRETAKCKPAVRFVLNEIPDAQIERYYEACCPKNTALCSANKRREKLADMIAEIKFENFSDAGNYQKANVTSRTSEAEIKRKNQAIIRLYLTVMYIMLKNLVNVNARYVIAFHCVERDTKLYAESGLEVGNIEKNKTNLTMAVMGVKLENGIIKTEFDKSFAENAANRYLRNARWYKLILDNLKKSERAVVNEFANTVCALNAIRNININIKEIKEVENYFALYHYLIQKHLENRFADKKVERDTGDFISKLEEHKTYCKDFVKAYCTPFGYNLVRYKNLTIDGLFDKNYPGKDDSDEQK
- test: crRNA (strand 1, pre-loaded); Mg2+; 40 mM Tris-HCl pH 7.5, 150 mM NaCl, 6 mM MgCl2, 1 mM DTT, 0.1% Tween-20, 0.2 mg/ml BSA; 25 C; 10 min per concentration, then washed
- condition.set: tags: His6-TwinStrep-SUMO cleaved; N-terminal SNAP kept (SNAP-Surface 488); label: 3' end held by stalled T7 RNA polymerase
endpoint: pKd
Numbers only, as −log10 of the molar value.

For each listed entry, give its pKd.
1. target 3 U2C,A11C (mixed) RNA 1: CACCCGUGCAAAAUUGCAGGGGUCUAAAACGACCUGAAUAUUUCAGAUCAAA RNA 2: GGGAAUGGAUCCACAUCUACGAAUUCGUUUUUGAUCUGAACUAUUCAGGCCUGCAGAUCGGAAGAGCACACGU
2. target 1 MT 5'PFS GUC 3'PFS ACU (mixed) RNA 1: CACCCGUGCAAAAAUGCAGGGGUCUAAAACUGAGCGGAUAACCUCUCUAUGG RNA 2: GGGAAUGGAUCCACAUCUACGAAUUCGUCCCAUAGAGAGGUUAUCCGCUCAACUAGAUCGGAAGAGCACACGU
3. target 2 MT 5'PFS AAG 3'PFS UUA (mixed) RNA 1: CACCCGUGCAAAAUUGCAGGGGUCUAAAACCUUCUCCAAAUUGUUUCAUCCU RNA 2: GGGAAUGGAUCCACAUCUACGAAUUCAAGAGGAUGAAACAAUUUGGAGAAGUUAAGAUCGGAAGAGCACACGU
4. target 1 A1G,U10G (mixed) RNA 1: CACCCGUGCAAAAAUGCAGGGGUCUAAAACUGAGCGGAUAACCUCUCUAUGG RNA 2: GGGAAUGGAUCCACAUCUACGAAUUCGUACCAUAGAGAGGUGAUCCGCUCGCCGAGAUCGGAAGAGCACACGU

Response:
1: 7.26; 2: 7.77; 3: 8.17; 4: 7.68

Sourced from paper PMC10786891
